test system: UO-31 renal; assay: NCI-60 one-dose screen, 48 h; conditions: 10 µM unless noted
This is part of a sample that, as a whole, favours compounds with a hit. Of some 83,000 tested, about 20% had one in any assay. Activity calls are given as the source filed them. The calls were made as follows: active = growth percent below 10; inactive = the rest.
Pick one: active, inactive

- molecule smiles: "C(=N/Nc1ncnc2nc[nH]c12)/c1ccccn1"
  category label: "active"
- molecule smiles: "Fc1cc(-c2nnc3n2NC(=Nc2ccc(Cl)cc2)CS3)c(Cl)cc1Cl"
  category label: "inactive"
- molecule smiles: "Cc1cc2[nH]c(=O)c3c4ncccc4cn3c2cc1C"
  category label: "inactive"
- molecule smiles: "Cc1nc2ccccc2c(/C=C/c2ccc(Cl)cc2)c1C(=O)/C=C/c1ccc(C(F)(F)F)cc1"
  category label: "active"
- molecule smiles: "N#Cc1c(-c2ccc(Cl)cc2)nc2c(c(-c3ccccc3)nn2-c2ccccc2)c1-c1ccc(O)cc1"
  category label: "inactive"
- molecule smiles: "NCCCNc1nc2ccccc2c2c(=O)c3cc(F)cc(Cl)c3sc12"
  category label: "inactive"
- molecule smiles: "O=C(N/N=C/[C@@H](O)[C@H](O)[C@H](O)CO)c1ccc(NC(=O)c2cccnc2)cc1"
  category label: "inactive"
- molecule smiles: "COc1cc(-c2nc3sccn3c2-c2ccnc(NCCCNS(=O)(=O)c3ccc(F)cc3)n2)ccc1F"
  category label: "inactive"

Q: # outcome recorded in this test, key = Cc1cc2nc3ccc(N=Nc4ccc(N(C)C)cc4)cc3n(-c3ccccc3)c-2cc1=N
Ans: active

Q: # outcome recorded in this test, key = O=C(N=c1oc2ccccc2cc1-c1cc2ccccc2[nH]1)Nc1ccc(Cl)cc1
Ans: inactive

Q: # outcome recorded in this test, key = CC[C@H](C)C(=O)O[C@H]1CCC=C2C=C[C@H](C)[C@H](CC[C@@H]3CC=CC(=O)O3)[C@H]21
Ans: inactive

Q: # outcome recorded in this test, key = CNCCCC12CCC(c3ccccc31)c1ccccc12
Ans: inactive

Q: # outcome recorded in this test, key = COc1cccc(Cc2cc(-c3ccccc3)nn(CC(=O)c3ccccc3)c2=O)c1
Ans: inactive

Q: # outcome recorded in this test, key = COc1ccc(C2=Nn3c(nnc3-c3cc(Cl)cc(Cl)c3Cl)SC2)cc1
Ans: active

Q: # outcome recorded in this test, key = Brc1c[n+](Cc2ccc3ccccc3c2)cn1Cc1ccc2ccccc2c1
Ans: inactive
